B1: glmS ribozyme (parent)
chain: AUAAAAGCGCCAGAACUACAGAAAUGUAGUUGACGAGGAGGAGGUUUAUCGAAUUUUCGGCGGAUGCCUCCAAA

Variants of: B1
Assay: self-cleavage kobs at 160 uM GlcN6P; higher = faster cleavage; RNA array
Conditions: with glucosamine-6-phosphate
Fewer inactive variants are shown than the library holds.
// reported self-cleavage kobs at 160 uM GlcN6P for each item listed

The recorded self-cleavage kobs at 160 uM GlcN6P for G40A U47G is 0.000122 s⁻¹

Notebook: G38C U55A , self-cleavage kobs at 160 uM GlcN6P read as < 1e-05 s⁻¹

Sure, the documented self-cleavage kobs at 160 uM GlcN6P for G29U G43A C70A is < 1e-05 s⁻¹

Just so you know, measured self-cleavage kobs at 160 uM GlcN6P for A42U G60A came out at < 1e-05 s⁻¹

Kindly note the recorded self-cleavage kobs at 160 uM GlcN6P for A15G A48C , which is 2.29e-05 s⁻¹

GET /value?item= G35C G40A A42U &field=self-cleavage kobs at 160 uM GlcN6P returns < 1e-05 s⁻¹

Measured self-cleavage kobs at 160 uM GlcN6P, U31C G44A C71U : < 1e-05 s⁻¹
